Tested on: U2OS
Assay: Multiplex assay against U2OS
Assay type: toxicity, cell-based
Conditions: human, 48 h, 1 µM, compound concentration 1 uM, replicate 1
Assign class by Population Fragmented Nuclei (%): not lower than 10% means Satisfied; lower than 10% means Not satisfied.

Check out these entries, answers already filled in.
[[record]]
compound = "CC(C)N1CCC(C)(C)c2cc(C#Cc3ccc(C(=O)O)cc3)ccc21"
system = "U2OS"
label_class = "Not satisfied"

[[record]]
compound = "CCn1c(-c2nonc2N)nc2cnc(Oc3cccc(NC(=O)c4ccc(OCCN5CCOCC5)cc4)c3)cc21 [GSK-269962A]"
system = "U2OS"
label_class = "Satisfied"

[[record]]
compound = "Nc1nc2c(c(N3CCNCC3)n1)CCC1=C2[C@@H]2CCCC[C@@H]2O1"
system = "U2OS"
label_class = "Not satisfied"


// inclusive: Population Fragmented Nuclei (%) at least 10%? input: CCc1cc2c(cc1CC)CC(NC[C@H](O)c1ccc(O)c3[nH]c(=O)ccc13)C2 [INDACATEROL]
Not satisfied

// inclusive: Population Fragmented Nuclei (%) at least 10%? input: `CNc1oc(-c2cccc3ccccc23)nc1C#N`
Satisfied

// inclusive: Population Fragmented Nuclei (%) at least 10%? input: `COc1ccc(NS(=O)(=O)c2sc3ccc(Cl)cc3c2C)cc1N1CCNCC1.Cl`
Not satisfied

// inclusive: Population Fragmented Nuclei (%) at least 10%? input: CCCn1c(=O)c2[nH]c(C34CC5CC(CC3C5)C4)nc2n(CCC)c1=O [ROLOFYLLINE]
Not satisfied

// inclusive: Population Fragmented Nuclei (%) at least 10%? input: CCC(=O)O[C@]1(C(=O)SCF)[C@H](C)C[C@H]2[C@@H]3C[C@H](F)C4=CC(=O)C=C[C@]4(C)[C@@]3(F)[C@@H](O)C[C@@]21C [FLUTICASONE PROPIONATE]
Not satisfied

// inclusive: Population Fragmented Nuclei (%) at least 10%? input: `CC(=O)c1cc(-c2cc(C(=O)NC3CC3)ccc2C)c2ncccn12`
Not satisfied

// inclusive: Population Fragmented Nuclei (%) at least 10%? input: `Cc1cc2c(cc1N1C(=O)c3cccc4c(CCCO)ccc(c34)C1=O)n(C)c(=O)n2C`
Satisfied

// inclusive: Population Fragmented Nuclei (%) at least 10%? input: O=C(O)c1ccc2cc(-c3ccc(O)c(C45CC6CC(CC(C6)C4)C5)c3)ccc2c1 [O-DEMETHYLATED ADAPALENE]
Satisfied

// inclusive: Population Fragmented Nuclei (%) at least 10%? input: `COc1cc2c(NC3CCN(C(C)C)CC3)nc(N3CCC(F)(F)CC3)nc2cc1OCCCN1CCCC1`
Satisfied

// inclusive: Population Fragmented Nuclei (%) at least 10%? input: `Nc1ccc(C(=O)Nc2cccc(-c3nc(N4CCOCC4)c4oc5ncccc5c4n3)c2)cn1`
Satisfied
